Please respond with reported koff for every item in the list.
assay.target: T1, histidine-tagged human Siglec-7 (NovoProtein) (human, UniProt Q9Y286 19-353)
T1 construct: Bought protein; also called recombinant human Siglec-7; recombinant Siglec-7; not shown: histidine tag
T1 sequence (Q9Y286 19-353 limits assumed): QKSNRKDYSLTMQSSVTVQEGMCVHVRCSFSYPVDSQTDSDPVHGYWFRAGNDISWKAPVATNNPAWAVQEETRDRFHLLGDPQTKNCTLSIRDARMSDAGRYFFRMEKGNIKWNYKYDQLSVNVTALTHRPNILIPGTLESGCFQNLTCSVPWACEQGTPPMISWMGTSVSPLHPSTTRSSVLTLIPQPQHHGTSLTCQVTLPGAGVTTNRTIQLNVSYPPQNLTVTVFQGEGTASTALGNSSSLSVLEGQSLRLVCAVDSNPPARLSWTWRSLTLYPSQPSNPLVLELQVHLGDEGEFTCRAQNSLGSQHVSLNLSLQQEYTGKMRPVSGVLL
protocol.notes: BLI, antibody captured
Protocol: In this assay, the humanized antibodies were compared directly to S7AB. Briefly, the antibodies were captured on anti-human or anti-mouse IgG Fc Biosensors (Pall ForteBio). […] Apparent affinity constants (KD) were calculated from the ratio kd/kₐ. The affinities of S7AB-H8 and variants S7AB-H8.1 through S7AB-H8.45 for human Siglec-7 were measured by BioLayer Interferometry according to the method described in Example 1 above.
One number for each entry, in s⁻¹.

Consider the reported koff for these binders:
S7AB-H8.9 (antibody, V domains shown) VH: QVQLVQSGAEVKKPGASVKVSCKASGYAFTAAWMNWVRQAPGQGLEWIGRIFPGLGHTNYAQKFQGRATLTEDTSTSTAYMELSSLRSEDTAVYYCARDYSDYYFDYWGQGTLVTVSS VL: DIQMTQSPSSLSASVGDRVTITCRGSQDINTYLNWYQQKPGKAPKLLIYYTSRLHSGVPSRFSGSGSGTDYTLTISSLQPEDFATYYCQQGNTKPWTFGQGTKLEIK ... 4.82e-05
S7AB-H8.18 (antibody, V domains shown) VH: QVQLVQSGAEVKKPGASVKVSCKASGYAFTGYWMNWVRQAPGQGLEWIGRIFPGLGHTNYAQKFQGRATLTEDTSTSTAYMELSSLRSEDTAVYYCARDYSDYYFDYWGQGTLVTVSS VL: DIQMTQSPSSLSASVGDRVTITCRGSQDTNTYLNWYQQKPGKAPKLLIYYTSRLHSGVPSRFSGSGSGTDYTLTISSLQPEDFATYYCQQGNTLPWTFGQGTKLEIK ... 0.000142

Please look up its koff: S7AB-H8.19 (antibody, V domains shown) VH: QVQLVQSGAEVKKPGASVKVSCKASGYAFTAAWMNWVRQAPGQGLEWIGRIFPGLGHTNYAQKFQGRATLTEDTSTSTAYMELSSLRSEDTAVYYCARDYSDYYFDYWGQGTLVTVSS VL: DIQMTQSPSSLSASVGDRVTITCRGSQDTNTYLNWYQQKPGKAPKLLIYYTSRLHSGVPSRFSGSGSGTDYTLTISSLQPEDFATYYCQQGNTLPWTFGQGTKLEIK
0.000112
